Where these numbers come from: patent EP3478687B1

Target: Recombinant purified human JAK3 (Homo sapiens)
Experiment: JAK3 kinase inhibitory activity, ADP-Glo kinase assay (Promega V9441)
Settings: ATP 5 uM, 4 ng JAK3 per reaction, 1 hour 30 °C, chemiluminescence

{"molecule": "C=CC(=O)N1CCC[C@@H](Nc2nc(Nc3cnn(CC(F)(F)F)c3)nc3[nH]ncc23)C1", "IC50": "1.4 nM"}
{"molecule": "CCn1cc(Nc2nc(S[C@@H]3CCCN(C(=O)/C(C#N)=C/C4CC4)C3)c3cn[nH]c3n2)cn1", "IC50": "42.1 nM"}
{"molecule": "C=CC(=O)N1CCC[C@@H](Sc2nc(Nc3cnn(C(C)(C)C)c3)nc3[nH]nc(Cl)c23)C1", "IC50": "1.6 nM"}
{"molecule": "C=CC(=O)N1CCC[C@@H](Nc2nc(Nc3cnn(C)c3)nc3[nH]nc(SC)c23)C1", "IC50": "4.2 nM"}

----------
Biological target: Recombinant purified human JAK3 (Homo sapiens, UniProt P52333)
Sequence (P52333 whole entry): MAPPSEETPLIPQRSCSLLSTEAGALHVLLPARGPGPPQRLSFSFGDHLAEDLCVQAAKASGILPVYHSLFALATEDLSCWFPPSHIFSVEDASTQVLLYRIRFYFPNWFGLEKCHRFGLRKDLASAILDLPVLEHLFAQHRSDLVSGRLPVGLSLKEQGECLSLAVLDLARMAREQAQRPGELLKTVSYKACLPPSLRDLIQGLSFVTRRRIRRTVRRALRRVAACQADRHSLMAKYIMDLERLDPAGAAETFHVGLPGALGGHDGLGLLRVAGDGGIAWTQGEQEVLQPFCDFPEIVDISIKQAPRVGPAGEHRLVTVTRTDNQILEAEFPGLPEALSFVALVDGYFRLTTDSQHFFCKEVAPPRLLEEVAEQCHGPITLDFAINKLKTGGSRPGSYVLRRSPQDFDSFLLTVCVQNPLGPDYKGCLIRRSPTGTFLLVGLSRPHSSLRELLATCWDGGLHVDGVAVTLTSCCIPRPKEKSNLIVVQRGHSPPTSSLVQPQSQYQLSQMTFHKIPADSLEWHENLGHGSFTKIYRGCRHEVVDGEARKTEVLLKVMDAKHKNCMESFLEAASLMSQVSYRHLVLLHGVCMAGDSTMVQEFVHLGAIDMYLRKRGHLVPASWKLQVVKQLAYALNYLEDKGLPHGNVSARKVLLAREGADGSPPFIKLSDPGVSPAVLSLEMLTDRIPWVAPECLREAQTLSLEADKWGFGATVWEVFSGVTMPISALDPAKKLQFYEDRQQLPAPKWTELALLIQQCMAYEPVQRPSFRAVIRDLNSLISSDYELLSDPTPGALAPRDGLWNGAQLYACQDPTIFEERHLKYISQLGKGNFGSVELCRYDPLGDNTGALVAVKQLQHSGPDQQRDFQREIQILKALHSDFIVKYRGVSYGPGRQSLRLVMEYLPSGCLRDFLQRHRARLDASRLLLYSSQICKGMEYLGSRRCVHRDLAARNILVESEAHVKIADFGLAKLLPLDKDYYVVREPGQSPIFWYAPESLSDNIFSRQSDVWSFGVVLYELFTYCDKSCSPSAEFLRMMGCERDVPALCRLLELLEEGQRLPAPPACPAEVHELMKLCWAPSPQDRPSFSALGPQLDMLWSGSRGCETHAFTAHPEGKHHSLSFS
Test: JAK3 kinase inhibitory activity, ADP-Glo kinase assay (Promega V9441)
Conditions: ATP 5 uM, 4 ng JAK3 per reaction, 1 hour 30 °C, chemiluminescence
pIC50: −log10 of the molar value.

{"compound": "CCn1cc(Nc2nc(N[C@H]3CN(C(=O)CC#N)CC[C@H]3F)c3c(Cl)n[nH]c3n2)cn1", "censor symbol": "<", "pIC50": 7.10}
{"compound": "C=CC(=O)N1CCC[C@@H](Nc2nc(Nc3cnn(CCC)c3)nc3[nH]ncc23)C1", "censor symbol": "=", "pIC50": 8.36}
{"compound": "C=CC(=O)N1CCC[C@@H](Nc2nc(Nc3cnn(C4CC4)c3)nc3[nH]nc(SC)c23)C1", "censor symbol": "=", "pIC50": 7.37}
{"compound": "C=CC(=O)N1CC[C@@H](C)[C@@H](Nc2nc(Nc3cnn(CC)c3)nc3[nH]nc(SC)c23)C1", "censor symbol": "=", "pIC50": 7.59}
{"compound": "C=CC(=O)N1CCC[C@@H](Nc2nc(Nc3cnn(CC)c3)nc3[nH]cc(C)c23)C1", "censor symbol": "=", "pIC50": 9.40}
{"compound": "CCn1cc(Nc2nc(N[C@@H]3CCCN(C(=O)/C(C#N)=C/C(C)C)C3)c3c(Cl)c[nH]c3n2)cn1", "censor symbol": "=", "pIC50": 9.30}
{"compound": "C=CC(=O)N1CCC[C@@H](Nc2nc(Nc3cnn(CC)c3)nc3[nH]ccc23)C1", "censor symbol": "=", "pIC50": 9.40}
{"compound": "C=CC(=O)N1CCC[C@@H](Nc2nc(Nc3cnn(CC(F)F)c3)nc3[nH]nc(C)c23)C1", "censor symbol": "=", "pIC50": 8.36}
{"compound": "C=CC(=O)N1CCC[C@@H](Sc2nc(Nc3cnn(CC)c3)nc3[nH]nc(Cl)c23)C1", "censor symbol": "=", "pIC50": 8.96}
{"compound": "C=CC(=O)NC1CCCC(Nc2nc(Nc3ccc(N4CCN(C)CC4)cc3)nc3[nH]ccc23)C1 (stereo not drawn)", "censor symbol": "=", "pIC50": 7.18}
{"compound": "C=CC(=O)N1CCC[C@@H](Nc2nc(Nc3ccc(OCCN(CC)CC)cc3)nc3[nH]ccc23)C1", "censor symbol": "=", "pIC50": 8.30}
{"compound": "CCn1cc(Nc2nc(N[C@@H]3CCCN(C(=O)/C(C#N)=C/C4CC4)C3)c3c(Cl)n[nH]c3n2)cn1", "censor symbol": "=", "pIC50": 8.25}
{"compound": "C=CC(=O)N1CCC[C@@H](Oc2nc(Nc3ccc(N4CCOCC4)cc3)nc3[nH]ccc23)C1", "censor symbol": "=", "pIC50": 8.70}
{"compound": "C=CC(=O)N1CCC[C@@H](Nc2nc(Nc3cnn(C(C)(C)C)c3)nc3[nH]nc(C)c23)C1", "censor symbol": "=", "pIC50": 7.84}
{"compound": "C=CC(=O)N1CC[C@@H](C)[C@@H](N(C)c2nc(Nc3cnn(CC)c3)nc3[nH]nc(Cl)c23)C1", "censor symbol": "=", "pIC50": 7.57}

----------
Molecular target: Recombinant purified human BTK (Homo sapiens, UniProt Q06187)
Sequence (Q06187 whole entry): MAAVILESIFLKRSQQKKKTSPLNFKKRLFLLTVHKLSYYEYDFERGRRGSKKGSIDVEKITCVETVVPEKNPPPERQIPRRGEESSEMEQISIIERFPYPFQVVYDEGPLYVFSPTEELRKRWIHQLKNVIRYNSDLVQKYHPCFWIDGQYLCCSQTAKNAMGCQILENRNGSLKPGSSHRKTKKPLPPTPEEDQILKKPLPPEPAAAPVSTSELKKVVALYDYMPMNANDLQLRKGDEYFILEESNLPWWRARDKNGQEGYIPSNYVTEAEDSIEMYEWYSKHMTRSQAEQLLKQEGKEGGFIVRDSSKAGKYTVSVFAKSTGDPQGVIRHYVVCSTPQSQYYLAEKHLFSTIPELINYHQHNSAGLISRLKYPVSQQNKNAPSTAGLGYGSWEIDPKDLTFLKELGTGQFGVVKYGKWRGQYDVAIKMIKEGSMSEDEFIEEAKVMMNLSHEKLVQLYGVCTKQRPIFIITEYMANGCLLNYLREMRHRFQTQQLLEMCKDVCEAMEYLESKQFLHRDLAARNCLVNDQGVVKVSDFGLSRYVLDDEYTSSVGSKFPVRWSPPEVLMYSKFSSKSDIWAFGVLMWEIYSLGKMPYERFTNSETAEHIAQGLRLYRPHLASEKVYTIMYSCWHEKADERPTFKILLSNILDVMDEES
Experiment: BTK kinase inhibitory activity, ADP-Glo kinase assay (Promega V9071)
Conditions: ATP 10 uM, 8 ng BTK per reaction, 1 hour 30 °C, chemiluminescence
Rule: measured IC50 below 6 nM gets y; anything equal to or greater than 6 nM gets n.

{"compound": "CCn1cc(Nc2nc(N(C)[C@@H]3CCCN(C(=O)/C(C#N)=C/C4CC4)C3)c3c(Cl)n[nH]c3n2)cn1 [Example 167]", "assigned category": "y"}
{"compound": "N#C/C(=C\\C1CC1)C(=O)N1CCC[C@@H](Nc2nc(Nc3cnn(C4CC4)c3)nc3[nH]nc(Cl)c23)C1 [Example 164]", "assigned category": "y"}
{"compound": "C=CC(=O)N1CCC[C@@H](Nc2nc(Nc3cnn(CC(=O)NC)c3)nc3[nH]ncc23)C1 [Example 35]", "assigned category": "y"}
{"compound": "C=CC(=O)N1CCC[C@@H](Nc2nc(Nc3cnn(CC(=O)NC)c3)nc3[nH]ccc23)C1 [Example 24]", "assigned category": "n"}
{"compound": "C=CC(=O)N1CCC[C@@H](Nc2nc(Nc3ccc(N4CCOCC4)cc3)nc3[nH]ccc23)C1 [Example 4]", "assigned category": "n"}
{"compound": "C=CC(=O)N1CCC[C@@H](Nc2nc(Nc3cnn(CC)c3)nc3[nH]cc(Cl)c23)C1 [Example 37]", "assigned category": "y"}

----------
Target: Recombinant purified human JAK3 (Homo sapiens)
Experiment: JAK3 kinase inhibitory activity, ADP-Glo kinase assay (Promega V9441)
Conditions: ATP 5 uM, 4 ng JAK3 per reaction, 1 hour 30 °C, chemiluminescence
measured quantity: log10 of IC50 (log10 of the value in nM)

{"compound": "C=CC(=O)N1CCC[C@@H](Nc2nc(Nc3ccc(N4CCOCC4)c(F)c3)nc3[nH]cc(Cl)c23)C1 [Example 98]", "test result": 0.38}
{"compound": "CCn1cc(Nc2nc(N(C)[C@@H]3CCCN(C(=O)/C(C#N)=C/C4CC4)C3)c3c(Cl)n[nH]c3n2)cn1 [Example 167]", "test result": 1.63}
{"compound": "C=CC(=O)N1CCC[C@@H](Nc2nc(Nc3cnn(C(F)F)c3)nc3[nH]ncc23)C1 [Example 34]", "test result": 0.53}
{"compound": "CCn1cc(Nc2nc(S[C@@H]3CCCN(C(=O)/C(C#N)=C/C(C)C)C3)c3cc[nH]c3n2)cn1 [Example 174]", "test result": -0.15}
{"compound": "CCn1cc(Nc2nc(N[C@H]3CN(C(=O)/C(C#N)=C/C(C)C)CC[C@H]3C)c3c(Cl)n[nH]c3n2)cn1 [Example 170]", "test result": 1.06}
{"compound": "C=CC(=O)N1CCC[C@@H](Oc2nc(Nc3cnn(CC(F)F)c3)nc3[nH]cc(C#N)c23)C1 [Example 149]", "test result": -0.70}
{"compound": "C=CC(=O)N1CCC[C@@H](Nc2nc(Nc3cnn(CCOC)c3)nc3[nH]ncc23)C1 [Example 74]", "test result": 0.73}

----------
Target: Recombinant purified human BTK (Homo sapiens)
Test: BTK kinase inhibitory activity, ADP-Glo kinase assay (Promega V9071)
Conditions: ATP 10 uM, 8 ng BTK per reaction, 1 hour 30 °C, chemiluminescence
Rule: measured IC50 below 2 nM gets label 1; anything equal to or greater than 2 nM gets label 0.

{"molecule": "C=CC(=O)N1CC[C@@H](C)[C@@H](Nc2nc(Nc3cnn(CCN4CCOCC4)c3)nc3[nH]nc(Cl)c23)C1", "assigned category": "label 0"}
{"molecule": "C=CC(=O)N1CCC[C@@H](Nc2nc(Nc3cnn(CC(F)F)c3)nc3[nH]ncc23)C1", "assigned category": "label 0"}
{"molecule": "C=CC(=O)N1CCC[C@@H](Nc2nc(Nc3ccc(-n4nc(C)cc4C)cc3)nc3[nH]ccc23)C1", "assigned category": "label 0"}
{"molecule": "C=CC(=O)N1CCC[C@@H](Nc2nc(Nc3cccnc3)nc3[nH]cc(Cl)c23)C1", "assigned category": "label 0"}
{"molecule": "C=CC(=O)N1CC[C@@H](C)[C@@H](Nc2nc(Nc3cnn(CCC)c3)nc3[nH]nc(Cl)c23)C1", "assigned category": "label 0"}
{"molecule": "CCn1cc(Nc2nc(N[C@@H]3CCCN(C(=O)/C(C#N)=C/C4CC4)C3)c3c(Cl)n[nH]c3n2)cn1", "assigned category": "label 1"}
{"molecule": "C=CC(=O)N1CCC[C@@H](Nc2nc(Nc3cnn(CC)c3)nc3[nH]cc(C)c23)C1", "assigned category": "label 0"}
{"molecule": "C=CC(=O)N1CCC[C@@H](Nc2nc(Nc3cnn(C4CC4)c3)nc3[nH]cc(Cl)c23)C1", "assigned category": "label 1"}
{"molecule": "C=CC(=O)N1CCC[C@@H](Sc2nc(Nc3cnn(CC)c3)nc3[nH]ncc23)C1", "assigned category": "label 1"}
{"molecule": "C=CC(=O)N1CCC[C@@H](Nc2nc(Nc3cnn(C(F)F)c3)nc3[nH]nc(Cl)c23)C1", "assigned category": "label 1"}
{"molecule": "C=CC(=O)N1CCC[C@@H](Nc2nc(Nc3cnn(CC(F)F)c3)nc3[nH]nc(SC)c23)C1", "assigned category": "label 1"}
{"molecule": "C=CC(=O)N1CCC[C@@H](Nc2nc(Nc3cnn(CC#N)c3)nc3[nH]nc(Cl)c23)C1", "assigned category": "label 1"}
{"molecule": "C=CC(=O)N1CCC[C@@H](Nc2nc(Nc3cnn(CC)c3)nc3[nH]cc(F)c23)C1", "assigned category": "label 1"}
{"molecule": "C=CC(=O)N1CCC[C@@H](Oc2nc(Nc3cnn(CC)c3)nc3[nH]cc(C#N)c23)C1", "assigned category": "label 1"}
{"molecule": "C=CC(=O)N1CCC[C@@H](N(C)c2nc(Nc3cnn(CC)c3)nc3[nH]ccc23)C1", "assigned category": "label 0"}
{"molecule": "C=CC(=O)N1CC[C@@H](C)[C@@H](Nc2nc(Nc3cnn(CC)c3)nc3[nH]nc(Cl)c23)C1", "assigned category": "label 0"}
{"molecule": "C=CC(=O)N1CCC[C@@H](Nc2nc(Nc3ccc4ncsc4c3)nc3[nH]ccc23)C1", "assigned category": "label 0"}
{"molecule": "C=CC(=O)N1CCC[C@@H](Nc2nc(Nc3cnn(C(F)F)c3)nc3[nH]ccc23)C1", "assigned category": "label 0"}
{"molecule": "C=CC(=O)N1CC[C@@H](F)[C@@H](Nc2nc(Nc3cnn(CC)c3)nc3[nH]ccc23)C1", "assigned category": "label 1"}
{"molecule": "C=CC(=O)N1CCC[C@@H](Nc2nc(Nc3ccc(N4CCN(C)CC4)cc3)nc3[nH]ncc23)C1", "assigned category": "label 0"}
{"molecule": "C=CC(=O)N1CCC[C@@H](Nc2nc(Nc3cnn(CC(C)C)c3)nc3[nH]cc(Cl)c23)C1", "assigned category": "label 1"}
{"molecule": "C=CC(=O)N1CCC[C@@H](Nc2nc(Nc3cnn(C(C)(C)C)c3)nc3[nH]cc(Cl)c23)C1", "assigned category": "label 0"}
{"molecule": "CCn1cc(Nc2nc(N(C)[C@@H]3CCCN(C(=O)/C(C#N)=C/C(C)C)C3)c3c(Cl)n[nH]c3n2)cn1", "assigned category": "label 0"}
{"molecule": "C=CC(=O)N1CCC[C@@H](Nc2nc(Nc3cnn(C(C)(C)C)c3)nc3[nH]nc(C)c23)C1", "assigned category": "label 1"}
{"molecule": "C=CC(=O)N1CCC[C@@H](Nc2nc(Nc3cnn(C(C)(C)C)c3)nc3[nH]nc(Cl)c23)C1", "assigned category": "label 1"}
{"molecule": "CCn1cc(Nc2nc(N[C@@H]3CCCN(C(=O)/C(C#N)=C/C(C)C)C3)c3cc[nH]c3n2)cn1", "assigned category": "label 1"}
{"molecule": "C=CC(=O)N1CCC[C@@H](Nc2nc(Nc3cnoc3)nc3[nH]nc(Cl)c23)C1", "assigned category": "label 1"}
{"molecule": "CN1CCN(c2ccc(Nc3nc(N[C@@H]4CCCN(C(=O)C#CC5CC5)C4)c4c(Cl)c[nH]c4n3)cc2)CC1", "assigned category": "label 0"}
{"molecule": "C=CC(=O)N1CCC[C@@H](Nc2nc(Nc3cnn(C(F)F)c3)nc3[nH]ncc23)C1", "assigned category": "label 0"}
{"molecule": "CCn1cc(Nc2nc(N[C@H]3CN(C(=O)/C(C#N)=C/C(C)C)CC[C@H]3C)c3c(Cl)n[nH]c3n2)cn1", "assigned category": "label 0"}
